Sourced from the supplement of paper PMC10307832

Test system: H3255
protocol summary: relative viability (nuclei count vs DMSO), 5 days (fraction); higher = more cells survive
experimental parameters: first compound 6.325 µM
quantity name: relative viability
Could you respond with only the numeric value?

Completed entries (count: 2):
Cc1csc(=NC2CCCCC2)n1/N=C/c1ccc(O)c(O)c1O [MIM1] + Nc1ncn([C@H]2C[C@H](O)[C@@H](CO)O2)c(=O)n1 [Decitabine] (partner 2 µM): 0.486
Cc1csc(=NC2CCCCC2)n1/N=C/c1ccc(O)c(O)c1O [MIM1] + CC(=O)c1c(C)c2cnc(Nc3ccc(N4CCNCC4)cn3)nc2n(C2CCCC2)c1=O [Palbociclib] (partner 0.5 µM): 0.326

Please turn your attention to the following entry.
For the compound Cc1csc(=NC2CCCCC2)n1/N=C/c1ccc(O)c(O)c1O [MIM1] + CS(=O)(=O)CCNCc1ccc(-c2ccc3ncnc(Nc4ccc(OCc5cccc(F)c5)c(Cl)c4)c3c2)o1 [Lapatinib] (partner 2 µM) , what relative viability is on record?
0.22

====

Tested on: NCI-H1650
protocol summary: relative viability (nuclei count vs DMSO), 5 days (fraction); higher = more cells survive
experimental parameters: first compound 0.01 µM
quantity name: relative viability
Could you respond with only the numeric value?

Cc1cn(-c2cc(NC(=O)c3ccc(C)c(Nc4nccc(-c5cccnc5)n4)c3)cc(C(F)(F)F)c2)cn1 [Nilotinib] + COc1cc2c(Oc3ccc(NC(=O)C4(C(=O)Nc5ccc(F)cc5)CC4)cc3F)ccnc2cc1OCCCN1CCOCC1 [Foretinib] (partner 0.25 µM): 1.3

For the molecule Cc1cn(-c2cc(NC(=O)c3ccc(C)c(Nc4nccc(-c5cccnc5)n4)c3)cc(C(F)(F)F)c2)cn1 [Nilotinib] + CC(=O)Nc1cccc(-n2c(=O)n(C3CC3)c(=O)c3c(Nc4ccc(I)cc4F)n(C)c(=O)c(C)c32)c1 [Trametinib] (partner 0.02 µM) , what relative viability is on record?
0.531

For the molecule Cc1cn(-c2cc(NC(=O)c3ccc(C)c(Nc4nccc(-c5cccnc5)n4)c3)cc(C(F)(F)F)c2)cn1 [Nilotinib] + CC(=O)c1c(C)c2cnc(Nc3ccc(N4CCNCC4)cn3)nc2n(C2CCCC2)c1=O [Palbociclib] (partner 0.5 µM) , what relative viability is on record?
0.324

For the molecule Cc1cn(-c2cc(NC(=O)c3ccc(C)c(Nc4nccc(-c5cccnc5)n4)c3)cc(C(F)(F)F)c2)cn1 [Nilotinib] + Nc1nc2[nH]cc(CCc3ccc(C(=O)N[C@@H](CCC(=O)O)C(=O)O)cc3)c2c(=O)[nH]1 [Pemetrexed] (partner 0.2 µM) , what relative viability is on record?
0.39

====

System: LCLC-97TM1
protocol summary: relative viability (nuclei count vs DMSO), 5 days (fraction); higher = more cells survive
experimental parameters: first compound 0.001 µM
Recorded relative viability by entry
Could you respond with only the numeric value?

Cc1cn(-c2cc(NC(=O)c3ccc(C)c(Nc4nccc(-c5cccnc5)n4)c3)cc(C(F)(F)F)c2)cn1 [Nilotinib] + Nc1nc2[nH]cc(CCc3ccc(C(=O)N[C@@H](CCC(=O)O)C(=O)O)cc3)c2c(=O)[nH]1 [Pemetrexed] (partner 0.2 µM): 0.18
Cc1cn(-c2cc(NC(=O)c3ccc(C)c(Nc4nccc(-c5cccnc5)n4)c3)cc(C(F)(F)F)c2)cn1 [Nilotinib] + CCNC(=O)c1noc(-c2cc(C(C)C)c(O)cc2O)c1-c1ccc(CN2CCOCC2)cc1 [Luminespib] (partner 0.01 µM): 0.795
Cc1cn(-c2cc(NC(=O)c3ccc(C)c(Nc4nccc(-c5cccnc5)n4)c3)cc(C(F)(F)F)c2)cn1 [Nilotinib] + COc1cc2c(Oc3ccc(NC(=O)C4(C(=O)Nc5ccc(F)cc5)CC4)cc3F)ccnc2cc1OCCCN1CCOCC1 [Foretinib] (partner 0.25 µM): 0.902

Identify the measured relative viability of Cc1cn(-c2cc(NC(=O)c3ccc(C)c(Nc4nccc(-c5cccnc5)n4)c3)cc(C(F)(F)F)c2)cn1 [Nilotinib] + Cc1cc(Nc2cc(N3CCN(C)CC3)nc(Sc3ccc(NC(=O)C4CC4)cc3)n2)n[nH]1 [Tozasertib] (partner 0.1 µM) for LCLC-97TM1.
0.236
